- Study System: furin, P09958;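 further: purified furin at 1:10 enzyme:substrate in 50 mM HEPES pH 7.5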
- Sequence (P09958 whole entry): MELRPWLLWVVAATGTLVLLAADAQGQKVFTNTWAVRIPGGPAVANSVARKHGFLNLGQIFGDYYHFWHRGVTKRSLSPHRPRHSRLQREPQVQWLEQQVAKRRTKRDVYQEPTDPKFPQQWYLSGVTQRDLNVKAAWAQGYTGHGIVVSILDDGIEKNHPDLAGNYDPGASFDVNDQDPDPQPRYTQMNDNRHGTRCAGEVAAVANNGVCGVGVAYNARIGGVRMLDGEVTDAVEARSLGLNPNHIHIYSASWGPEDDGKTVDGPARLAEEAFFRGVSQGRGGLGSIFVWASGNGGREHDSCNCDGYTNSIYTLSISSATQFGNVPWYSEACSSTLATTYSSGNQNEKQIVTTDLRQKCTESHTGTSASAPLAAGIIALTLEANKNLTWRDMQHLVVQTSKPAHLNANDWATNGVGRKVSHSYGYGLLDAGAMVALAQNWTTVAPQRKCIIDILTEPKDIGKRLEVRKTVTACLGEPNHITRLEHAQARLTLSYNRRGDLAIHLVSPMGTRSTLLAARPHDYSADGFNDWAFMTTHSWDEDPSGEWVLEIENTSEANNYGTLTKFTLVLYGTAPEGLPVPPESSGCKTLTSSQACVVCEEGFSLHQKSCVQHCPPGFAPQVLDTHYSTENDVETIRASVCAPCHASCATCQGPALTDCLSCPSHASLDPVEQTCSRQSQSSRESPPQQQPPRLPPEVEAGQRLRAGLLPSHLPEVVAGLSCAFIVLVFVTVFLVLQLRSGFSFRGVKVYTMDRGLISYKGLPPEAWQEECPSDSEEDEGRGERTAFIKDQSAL
- Measurement Description: furin cleavage Z-score vs untreated control; higher = more cleavage, active = 3.5 or more, inactive = 1 or less, 8 variable residues between constant flanks
- Condition Details: 30 min
The list shows a part of the results. No count for the full screen is at hand.
Would you mind labelling by furin cleavage Z-score? At or over 1 is 1 (yes), under is 0 (no).

-- ask hey, is furin cleavage Z-score for this one >= 1? CARLDRHVFIAGNASASA [FS-2042]
-- reply 0 (no)

-- ask hey, is furin cleavage Z-score for this one >= 1? CACSTRVRRQAGNASASA [FS-120]
-- reply 1 (yes)

-- ask hey, is furin cleavage Z-score for this one >= 1? CAAHGIDPNIAGNASASA [HC796]
-- reply 0 (no)

-- ask hey, is furin cleavage Z-score for this one >= 1? CARHRRATGAAGNASASA [FS-2944]
-- reply 1 (yes)

-- ask hey, is furin cleavage Z-score for this one >= 1? CARLKRRQEEAGNASASA [FS-2709]
-- reply 1 (yes)

-- ask hey, is furin cleavage Z-score for this one >= 1? CARLKRAVSEAGNASASA [FS-2704]
-- reply 1 (yes)

-- ask hey, is furin cleavage Z-score for this one >= 1? CARLKRVVPDAGNASASA [FS-2221]
-- reply 1 (yes)

-- ask hey, is furin cleavage Z-score for this one >= 1? CARLKRAVWIAGNASASA [FS-2989]
-- reply 1 (yes)

-- ask hey, is furin cleavage Z-score for this one >= 1? CASTTCSAHLAGNASASA [HC2518]
-- reply 0 (no)

-- ask hey, is furin cleavage Z-score for this one >= 1? CARLKRHPEEAGNASASA [FS-2276]
-- reply 1 (yes)

-- ask hey, is furin cleavage Z-score for this one >= 1? CARLKKIKDDAGNASASA [FS-1740]
-- reply 0 (no)

-- ask hey, is furin cleavage Z-score for this one >= 1? CALPYLVAYQAGNASASA [HC952]
-- reply 0 (no)

-- ask hey, is furin cleavage Z-score for this one >= 1? CAVGDLCGSVAGNASASA [HC299]
-- reply 1 (yes)

-- ask hey, is furin cleavage Z-score for this one >= 1? CALPKRVRRQAGNASASA [FS-1029]
-- reply 1 (yes)

-- ask hey, is furin cleavage Z-score for this one >= 1? CARHLRSAGSAGNASASA [FS-1896]
-- reply 1 (yes)
